MEASUREMENT NOTES: NCI Yeast Anticancer Drug Screen. Data for the rad50 strain (AID 155);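 further: 0% = growth of vehicle-only cultures of the same strain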
EXPERIMENTAL SETUP: S. cerevisiae rad50 strain growth inhibition; at 50.0 µM; stronger effect = higher value
This is part of a sample that, as a whole, favours compounds with a hit. Of some 79,000 tested, about 15% had one in any assay.

[
  {
    "COMPOUND": "CN1C(=O)c2ccccc2NC(=O)C12O[C@@H]2c1ccccc1 (some centres not stated)",
    "READING UNIT": "%",
    "growth inhibition": 0.05
  },
  {
    "COMPOUND": "CCOP(=O)(OCC)O/N=C(/CC)c1ccccc1",
    "READING UNIT": "%",
    "growth inhibition": 5.35
  },
  {
    "COMPOUND": "C#CCN(C)C(=O)N(CC#C)N=O",
    "READING UNIT": "%",
    "growth inhibition": 15.2
  },
  {
    "COMPOUND": "COC(c1ccccc1)(c1ccccc1)C1C(c2ccccc2)N1C1CCCCC1 (configuration not stated)",
    "READING UNIT": "%",
    "growth inhibition": 46.1
  },
  {
    "COMPOUND": "CCCCOP(=O)(O)OCCCC.[V]",
    "READING UNIT": "%",
    "growth inhibition": -0.55
  },
  {
    "COMPOUND": "O=[N+]([O-])c1cccc2cccnc12",
    "READING UNIT": "%",
    "growth inhibition": -11.4
  },
  {
    "COMPOUND": "CN1C2CCC1[C@@H](COC(=O)c1ccccc1)[C@@H](O)C2 (some centres not stated)",
    "READING UNIT": "%",
    "growth inhibition": -9.15
  },
  {
    "COMPOUND": "CC1(C)CN=C(NN=C(/C=C/c2ccc(C(F)(F)F)cc2)/C=C/c2ccc(C(F)(F)F)cc2)NC1",
    "READING UNIT": "%",
    "growth inhibition": 21.6
  },
  {
    "COMPOUND": "COC1=CC2CCC3C(CCC4(C)C(OC(C)=O)CCC34)C2(C)CC1 (configuration not stated)",
    "READING UNIT": "%",
    "growth inhibition": 13.2
  },
  {
    "COMPOUND": "COC(=O)CCCCCCCCCCN(CCCl)CCCl",
    "READING UNIT": "%",
    "growth inhibition": 39.6
  },
  {
    "COMPOUND": "COCCOC(=O)NCP(Cl)(CNC(=O)OCCOC)(CNC(=O)OCCOC)CNC(=O)OCCOC",
    "READING UNIT": "%",
    "growth inhibition": -11.6
  },
  {
    "COMPOUND": "N#CC(C#N)=Cc1ccccc1[N+](=O)[O-]",
    "READING UNIT": "%",
    "growth inhibition": 41.9
  },
  {
    "COMPOUND": "NC1CC2NC3CCCCC3NC2CC1N (configuration not stated)",
    "READING UNIT": "%",
    "growth inhibition": 14.8
  },
  {
    "COMPOUND": "Cc1ccc(C(=O)Nc2ccc(CP(=O)(O)O)cc2)cc1NC(=O)Nc1cc(C(=O)Nc2ccc(CP(=O)(O)O)cc2)ccc1C",
    "READING UNIT": "%",
    "growth inhibition": 3.55
  },
  {
    "COMPOUND": "Cc1ccc(O)cc1Cl",
    "READING UNIT": "%",
    "growth inhibition": -17.8
  },
  {
    "COMPOUND": "O=Cc1ccccc1O.[La]",
    "READING UNIT": "%",
    "growth inhibition": -7.9
  },
  {
    "COMPOUND": "CCCC/C=C(/C)C1(CC)C(=O)NC(=O)NC1=O",
    "READING UNIT": "%",
    "growth inhibition": 5.05
  },
  {
    "COMPOUND": "CC(NC(=O)c1ccccc1)N(C)[N+](=O)[O-] (configuration not stated)",
    "READING UNIT": "%",
    "growth inhibition": -3.7
  },
  {
    "COMPOUND": "O=C(O)C(F)F",
    "READING UNIT": "%",
    "growth inhibition": -16.9
  },
  {
    "COMPOUND": "CCCCC1(CCSC(=S)OCC)C(=O)NC(=O)NC1=O",
    "READING UNIT": "%",
    "growth inhibition": 12.6
  },
  {
    "COMPOUND": "O=[N+]([O-])c1ccc(-n2nc3ccc4c(no[n+]4[O-])c3n2)cc1",
    "READING UNIT": "%",
    "growth inhibition": -21.6
  },
  {
    "COMPOUND": "CC(=O)Nc1ccc([N+](=O)[O-])c(C(F)(F)F)c1",
    "READING UNIT": "%",
    "growth inhibition": -4.2
  },
  {
    "COMPOUND": "CCCCn1c(C)c(C(=O)OCC)c2cc(OCc3ccc(C(=O)Nn4c(C)ccc4C)cc3)c(Br)cc21",
    "READING UNIT": "%",
    "growth inhibition": 7.1
  },
  {
    "COMPOUND": "[Se]=[Mo]=[Se]",
    "READING UNIT": "%",
    "growth inhibition": -10.2
  },
  {
    "COMPOUND": "C/C=C/C(C)C1(CCC)C(=O)NC(=O)NC1=O (configuration not stated)",
    "READING UNIT": "%",
    "growth inhibition": 0.35
  },
  {
    "COMPOUND": "CCCCC(CC)COP(=S)(S)OCC(CC)CCCC.[Sn] (configuration not stated)",
    "READING UNIT": "%",
    "growth inhibition": -7.7
  },
  {
    "COMPOUND": "CC(C)N=Cc1ccccc1O.CC(C)N=Cc1ccccc1O.[Ni]",
    "READING UNIT": "%",
    "growth inhibition": 51.3
  },
  {
    "COMPOUND": "Cn1nc2ccc3nccc(NCCNCCCl)c3c2n1",
    "READING UNIT": "%",
    "growth inhibition": 6.95
  },
  {
    "COMPOUND": "N#Cc1ccc(Cl)cc1",
    "READING UNIT": "%",
    "growth inhibition": 9.65
  },
  {
    "COMPOUND": "CC1=CC(=Nc2ccc(N(CCCl)CCCl)cc2)C=CC1=O",
    "READING UNIT": "%",
    "growth inhibition": -6.1
  },
  {
    "COMPOUND": "Clc1ccc(C(Cl)(Cl)Cl)c(Cl)c1",
    "READING UNIT": "%",
    "growth inhibition": 9
  },
  {
    "COMPOUND": "CN1C2CCC1CC(O)(c1ccc(Cl)cc1)C2 (configuration not stated)",
    "READING UNIT": "%",
    "growth inhibition": 26.1
  },
  {
    "COMPOUND": "S=C=Nc1cccc2ccccc12",
    "READING UNIT": "%",
    "growth inhibition": -13.7
  },
  {
    "COMPOUND": "CC(C)COP(=O)(Cc1ccccc1)OCC(C)C",
    "READING UNIT": "%",
    "growth inhibition": 8.85
  },
  {
    "COMPOUND": "[CH3][Hg][O]C(C)=O",
    "READING UNIT": "%",
    "growth inhibition": 99.5
  },
  {
    "COMPOUND": "O=C(Cl)OC1CS(=O)(=O)CC1O (configuration not stated)",
    "READING UNIT": "%",
    "growth inhibition": -6.6
  },
  {
    "COMPOUND": "CCOC(=N)CC(O)C(Cl)(Cl)Cl (configuration not stated)",
    "READING UNIT": "%",
    "growth inhibition": -2.05
  },
  {
    "COMPOUND": "Cc1ccc(P(=S)(c2ccccc2)c2ccccc2)c2ccccc12",
    "READING UNIT": "%",
    "growth inhibition": 9.9
  },
  {
    "COMPOUND": "C=C(C)C1(CCC)C(=O)NC(=S)NC1=O",
    "READING UNIT": "%",
    "growth inhibition": 23.4
  },
  {
    "COMPOUND": "CC(=O)CCC(=O)O.[Ni]",
    "READING UNIT": "%",
    "growth inhibition": -37.5
  },
  {
    "COMPOUND": "CCC(C(C)C)C1NC1C(C)C1CCC2C3CC=C4CC(OC(C)=O)CCC4(C)C3CCC12C (configuration not stated)",
    "READING UNIT": "%",
    "growth inhibition": 95.8
  },
  {
    "COMPOUND": "C=CCOCN1c2cc(OC)c([C@@]3(C(=O)OC)C[C@@H]4CN(CCc5c3[nH]c3ccccc53)C[C@](O)(CC)C4)cc2[C@@]23CCN4CC=C[C@@](CC)([C@@H](OC(C)=O)[C@](O)(C(=O)OC)[C@H]12)[C@H]43",
    "READING UNIT": "%",
    "growth inhibition": -21.2
  },
  {
    "COMPOUND": "CCC1(N)C(=O)OCc2c1cc1n(c2=O)Cc2cc3ccccc3nc2-1 (configuration not stated)",
    "READING UNIT": "%",
    "growth inhibition": 4.8
  },
  {
    "COMPOUND": "O=[As](c1ccccc1Br)(c1ccccc1Br)c1ccccc1Br",
    "READING UNIT": "%",
    "growth inhibition": 70
  },
  {
    "COMPOUND": "O=C1c2ccccc2C(=O)c2ccccc21",
    "READING UNIT": "%",
    "growth inhibition": 37
  },
  {
    "COMPOUND": "COc1ccc(C(C)(C)CC(C)(C)C)cc1",
    "READING UNIT": "%",
    "growth inhibition": 39
  },
  {
    "COMPOUND": "O=S(=O)(c1ccccc1)c1ccccc1",
    "READING UNIT": "%",
    "growth inhibition": -2.9
  }
]
